measurement-target: human TLR7 (Homo sapiens, UniProt Q9NYK1)
Sequence (Q9NYK1 27-1049): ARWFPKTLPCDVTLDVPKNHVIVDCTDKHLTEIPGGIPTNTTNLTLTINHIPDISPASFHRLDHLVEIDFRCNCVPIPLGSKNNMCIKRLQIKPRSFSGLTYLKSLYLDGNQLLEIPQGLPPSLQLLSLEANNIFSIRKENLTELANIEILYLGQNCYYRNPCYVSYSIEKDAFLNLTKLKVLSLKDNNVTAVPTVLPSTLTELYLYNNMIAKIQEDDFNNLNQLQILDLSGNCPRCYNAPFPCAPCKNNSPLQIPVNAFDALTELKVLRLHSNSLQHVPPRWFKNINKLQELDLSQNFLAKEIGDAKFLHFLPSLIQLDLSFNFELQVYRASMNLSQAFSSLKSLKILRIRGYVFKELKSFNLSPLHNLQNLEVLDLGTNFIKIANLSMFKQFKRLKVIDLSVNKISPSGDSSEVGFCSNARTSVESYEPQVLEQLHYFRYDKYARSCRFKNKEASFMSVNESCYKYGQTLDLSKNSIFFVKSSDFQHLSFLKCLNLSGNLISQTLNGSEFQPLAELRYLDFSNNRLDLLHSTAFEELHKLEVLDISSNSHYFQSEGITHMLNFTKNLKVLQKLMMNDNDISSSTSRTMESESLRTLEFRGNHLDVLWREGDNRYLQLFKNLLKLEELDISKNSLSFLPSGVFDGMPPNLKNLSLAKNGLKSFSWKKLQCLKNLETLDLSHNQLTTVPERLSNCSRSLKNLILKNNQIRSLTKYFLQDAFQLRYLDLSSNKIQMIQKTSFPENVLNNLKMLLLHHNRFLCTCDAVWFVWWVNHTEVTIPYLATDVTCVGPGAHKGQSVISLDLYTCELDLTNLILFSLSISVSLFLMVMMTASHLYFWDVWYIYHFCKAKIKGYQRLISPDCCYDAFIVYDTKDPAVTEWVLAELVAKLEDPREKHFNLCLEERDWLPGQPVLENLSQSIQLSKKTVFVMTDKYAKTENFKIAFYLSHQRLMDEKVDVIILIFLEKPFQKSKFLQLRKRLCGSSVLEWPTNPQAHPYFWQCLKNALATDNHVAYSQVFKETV
procedure-details: TLR7 inhibition reporter assay (HEK-Blue cells, SEAP reporter)
condition-notes: HEK-Blue cells overexpressing human TLR7; stimulated with gardiquimod 7.5 μM; 22 hour incubation; SEAP readout
Excerpt: TLR7/8/9 Inhibition Reporter Assays HEK-Blue™-cells (Invivogen) overexpressing human TLR7, TLR8 or TLR9 receptors were used for screening inhibitors of these receptors using an inducible SEAP (secreted embryonic alkaline phosphatase) reporter gene under the control of the […] minimal promoter fused to five NF-κB and AP-1-binding sites. […]
experimental-readout: pIC50
The meaning of pIC50 here: minus log10 of the concentration in molar units.

Record excerpt, results attached:
{"compound": "COc1ccc(-c2cn3c(n2)CC(C2CCN(C4CCN(CC(C)C)CC4)CC2)CC3)cc1OC (racemic) [Example 59]", "pIC50": 5.11}
{"compound": "CS(=O)(=O)c1ccc(-c2cn3cc(C4CCN(C5CC6CCC(C5)N6C5COC5)CC4)cc(F)c3n2)cc1 (single isomer, unassigned) [Example 119]", "pIC50": 4.97}

Pending compound:
Here COc1ccc(-c2cn3c(n2)CC[C@H](C2CCN(C4CC5CCC(C4)N5CC(C)C)CC2)C3)cc1OC (single isomer, unassigned) [Example 75] was tested on human TLR7 (Homo sapiens, UniProt Q9NYK1), and its pIC50 came to 5.54
